Sourced from patent US7816521B2

- method description: Plasma pharmacokinetics, AUC of free drug in CD-1 nude mice
- Format: in vivo, mouse
- measurement parameters: CD-1 nude, mouse, in vivo, ip, AUC
measurement kind: AUC (µM·h)
Quick reminder: number only, in µM·h, skip the unit.

// query AUC value for entry Nc1n[n+]([O-])c2ccccc2[n+]1[O-] [A, tirapazamine, reference compound] 148

====

- Tested on: HT29 cells
- method description: First order rate constant for anoxic metabolism in HT29 cells (kmet)
- Format: in vitro ADME, human
- measurement parameters: rate constant of bioreductive metabolism, Table 1
measurement kind: kmet (min⁻¹)
Quick reminder: number only, in min⁻¹, skip the unit.

As a guide, the following entries are already answered.
{"columns": ["record smiles", "assay system", "output unit", "kmet"],
 "data": [
  ["Cc1ccc2c(c1)[n+]([O-])nc(NCCN(C)C)[n+]2[O-]", "HT29 cells", "min⁻¹", 2.54],
  ["Cc1ccc2c(c1)[n+]([O-])c(N)n[n+]2[O-]", "HT29 cells", "min⁻¹", 0.20],
  ["CS(=O)(=O)c1ccc2c(c1)[n+]([O-])nc(N)[n+]2[O-]", "HT29 cells", "min⁻¹", 1.00]
]}

Okay, now this compound:
# get_value(readout= kmet, system= HT29 cells) for CN(CCCNC(=O)c1cccc2cc3ccccc3nc12)CCCNc1n[n+]([O-])c2ccccc2[n+]1[O-] 9.18

====

- method description: Solubility in culture medium
- Type: physicochemical
- measurement parameters: culture medium (αMEM with 5% foetal bovine serum), plasma or biological fluid, thermodynamic from solid; culture medium (αMEM, 5% foetal bovine serum), pH 7.4; no unit in table, threshold is 2 mM
// values below are reported solubility
Quick reminder: number only, in mM, skip the unit.

As a guide, the following entries are already answered.
{"columns": ["record smiles", "measurement kind", "output unit", "experimental result"],
 "data": [
  ["Cc1ccc2c(c1)[n+]([O-])c(N)n[n+]2[O-]", "solubility", "mM", 3.02],
  ["CCc1ccc2c(c1)[n+]([O-])c(NCCCN1CCOCC1)n[n+]2[O-]", "solubility", "mM", 54.9],
  ["CS(=O)(=O)c1ccc2c(c1)[n+]([O-])nc(N)[n+]2[O-]", "solubility", "mM", 0.49],
  ["COCCc1n[n+]([O-])c2ccccc2[n+]1[O-]", "solubility", "mM", 21],
  ["[O-][n+]1nc(NCCCCCCNc2c3ccccc3nc3ccccc23)[n+]([O-])c2ccccc21", "solubility", "mM", 0.024]
]}

// query solubility value for entry COc1ccc2c(c1)[n+]([O-])c(NCCN(C)C)n[n+]2[O-] 45.5

Can you handle Cc1ccc2c(c1)[n+]([O-])c(NCCCN(C)CCCNC(=O)c1cccc3cc4ccccc4nc13)n[n+]2[O-] next? 32.4

Can you handle Nc1n[n+]([O-])c2cc(Cl)ccc2[n+]1[O-] next? 0.09

Can you handle CCOc1ccc2c(c1)[n+]([O-])c(NCCN(C)C)n[n+]2[O-] next? 50.3

Can you handle CCc1n[n+]([O-])c2ccc(OCCN(C)C)cc2[n+]1[O-] next? 48.5

====

- method description: Plasma pharmacokinetics, AUC of free drug in CD-1 nude mice
- Format: in vivo, mouse
- measurement parameters: CD-1 nude, mouse, plasma, ip, mouse plasma, free drug, at the MTD or 75% of the MTD; Table 2; read-out: AUC
// values below are reported AUC
Quick reminder: number only, in µM·h, skip the unit.

{"columns": ["record smiles", "AUC (µM·h)"],
 "data": [
  ["Nc1n[n+]([O-])c2cc(Cl)ccc2[n+]1[O-]", 2.7],
  ["Nc1n[n+]([O-])c2c(Cl)cccc2[n+]1[O-]", 0.7],
  ["CN(CCCNC(=O)c1cccc2cc3ccccc3nc12)CCCNc1n[n+]([O-])c2ccccc2[n+]1[O-]", 3.3],
  ["Cc1ccc2c(c1)[n+]([O-])c(N)n[n+]2[O-]", 216]
]}

// query AUC value for entry CCc1n[n+]([O-])c2ccccc2[n+]1[O-] 139

====

- method description: Plasma pharmacokinetics, AUC of free drug in CD-1 nude mice
- Type: in vivo, mouse
- measurement parameters: CD-1 nude, mouse, plasma, ip, AUC of free drug, single i.p. dose at maximum tolerated dose, mice; Table 1; read-out: AUCf
// values below are reported AUC
Quick reminder: number only, in µM·h, skip the unit.

As a guide, the following entries are already answered.
{"columns": ["record smiles", "measurement kind", "output unit", "experimental result"],
 "data": [
  ["CN(CCCNC(=O)c1cccc2cc3ccccc3nc12)CCCNc1n[n+]([O-])c2ccccc2[n+]1[O-]", "AUC", "µM·h", 3.6],
  ["CS(=O)(=O)c1ccc2c(c1)[n+]([O-])nc(N)[n+]2[O-]", "AUC", "µM·h", 15.6],
  ["Cc1ccc2c(c1)[n+]([O-])c(NCCCN(C)CCCNC(=O)c1cccc3cc4ccccc4nc13)n[n+]2[O-]", "AUC", "µM·h", 1.3],
  ["[O-][n+]1nc(NCCCCCCNc2c3ccccc3nc3ccccc23)[n+]([O-])c2ccccc21", "AUC", "µM·h", 0.042],
  ["Nc1n[n+]([O-])c2cc(Cl)ccc2[n+]1[O-]", "AUC", "µM·h", 1.9]
]}

// query AUC value for entry COCCc1n[n+]([O-])c2ccccc2[n+]1[O-] 79

Can you handle CN(CCCNC(=O)c1cccc2ccc(-c3ccncc3)nc12)CCCNc1n[n+]([O-])c2ccccc2[n+]1[O-] next? 0.9

Can you handle CCc1n[n+]([O-])c2ccccc2[n+]1[O-] next? 141

Can you handle Nc1n[n+]([O-])c2c(Cl)cccc2[n+]1[O-] next? 0.8

Can you handle Cc1ccc2c(c1)[n+]([O-])nc(NCCN(C)C)[n+]2[O-] next? 3.5

====

- method description: Solubility in culture medium
- Type: physicochemical
- measurement parameters: culture medium (αMEM with 5% foetal bovine serum), plasma or biological fluid, thermodynamic from solid; culture medium (αMEM, 5% foetal bovine serum), pH 7.4; no unit in table, threshold is 2 mM
measurement kind: log10(solubility) (log10 of the value in mM)
// units: mM (pre-log); metric: solubility; scale: log10

As a guide, the following entries are already answered.
{"columns": ["compound", "measurement kind", "experimental result"],
 "data": [
  ["CN(CCCNC(=O)c1cccc2cc3ccccc3nc12)CCCNc1n[n+]([O-])c2ccccc2[n+]1[O-] [L]", "log10(solubility)", -0.35],
  ["Cc1ccc2c(c1)[n+]([O-])c(NCCN(C)C)n[n+]2[O-] [H]", "log10(solubility)", 1.72]
]}

// query log10(solubility) value for entry Cc1ccc2c(c1)[n+]([O-])c(NCCCN1CCOCC1)n[n+]2[O-] [O] 1.63

Can you handle Nc1n[n+]([O-])c2c(Cl)cccc2[n+]1[O-] [D] next? 0.35

Can you handle COCCOc1ccc2c(c1)[n+]([O-])c(NCCN(C)C)n[n+]2[O-] [Q] next? 1.71

Can you handle CCc1n[n+]([O-])c2ccc(OCCCN3CCOCC3)cc2[n+]1[O-] [U] next? 1.67

Can you handle Cc1ccc2c(c1)[n+]([O-])nc(NCCN(C)C)[n+]2[O-] [F] next? 1.59

Can you handle CCc1n[n+]([O-])c2ccccc2[n+]1[O-] [I] next? 1.16

Can you handle CCCN(CCC)CCNc1n[n+]([O-])c2ccccc2[n+]1[O-] [G] next? 1.41

Can you handle CN(CCCNC(=O)c1cccc2ccc(-c3ccncc3)nc12)CCCNc1n[n+]([O-])c2ccccc2[n+]1[O-] [M] next? 0.58

Can you handle Nc1n[n+]([O-])c2ccccc2[n+]1[O-] [A, tirapazamine, reference compound] next? 0.95

====

- Test system: HT29 cells
- method description: First order rate constant for anoxic metabolism in HT29 cells (kmet)
- Assay type: in vitro ADME, human
- measurement parameters: rate constant of bioreductive metabolism, Table 1
measurement kind: kmet (min⁻¹)
Quick reminder: number only, in min⁻¹, skip the unit.

// query kmet value for entry Cc1ccc2c(c1)[n+]([O-])c(NCCCN(C)CCCNC(=O)c1cccc3cc4ccccc4nc13)n[n+]2[O-] 4.74

Can you handle Nc1n[n+]([O-])c2c(Cl)cccc2[n+]1[O-] next? 10.03

Can you handle Nc1n[n+]([O-])c2cc(Cl)ccc2[n+]1[O-] next? 3.92

Can you handle Cc1ccc2c(c1)[n+]([O-])c(NCCN(C)C)n[n+]2[O-] next? 1.52

====

- method description: Plasma pharmacokinetics, AUC of free drug in CD-1 nude mice
- Format: in vivo, mouse
- measurement parameters: CD-1 nude, mouse, plasma, ip, mouse plasma, free drug, at the MTD or 75% of the MTD; Table 2; read-out: AUC
measurement kind: AUC (µM·h)
Quick reminder: number only, in µM·h, skip the unit.

As a guide, the following entries are already answered.
{"columns": ["compound", "output unit", "experimental result"],
 "data": [
  ["CCOc1ccc2c(c1)[n+]([O-])c(NCCN(C)C)n[n+]2[O-] [R]", "µM·h", 82.4],
  ["COc1ccc2c(c1)[n+]([O-])c(NCCN(C)C)n[n+]2[O-] [P]", "µM·h", 240],
  ["CCc1n[n+]([O-])c2ccc(OCCN(C)C)cc2[n+]1[O-] [T]", "µM·h", 55.7],
  ["Cc1ccc2c(c1)[n+]([O-])c(NCCN(C)C)n[n+]2[O-] [H]", "µM·h", 67.8],
  ["COCCOc1ccc2c(c1)[n+]([O-])c(NCCN(C)C)n[n+]2[O-] [Q]", "µM·h", 256]
]}

// query AUC value for entry CCc1ccc2c(c1)[n+]([O-])c(NCCCN1CCOCC1)n[n+]2[O-] [S] 94.9

Can you handle CS(=O)(=O)c1ccc2c(c1)[n+]([O-])nc(N)[n+]2[O-] [E] next? 15.6

Can you handle COCCc1n[n+]([O-])c2ccccc2[n+]1[O-] [J] next? 83.5

Can you handle CCCN(CCC)CCNc1n[n+]([O-])c2ccccc2[n+]1[O-] [G] next? 7.1

Can you handle Cc1ccc2c(c1)[n+]([O-])nc(NCCN(C)C)[n+]2[O-] [F] next? 3.9
